# experiment: Growth inhibition of human UACC62 cells after 48 hrs by sulforhodamine B assay
# Assay type: functional
# conditionDescription: UACC-62, 48 h
GI50 for assorted compounds
experimentalReadout: GI50

substanceSmiles	recordedMeasurement
COc1ccc(/C=N/NC(=S)NC(C)(C)[C@H]2CC=C(C)CC2)cc1	13.3 µM
CC1=CC[C@H](C(C)(C)NC(=S)N/N=C/c2ccco2)CC1	10.7 µM
CC1=CC[C@H](C(C)(C)NC(=S)N/N=C/c2ccccc2)CC1	31.6 µM
CC(=O)O[C@H]1C(=O)[C@@]2(C)[C@H]([C@H](OC(=O)c3ccccc3)[C@]3(O)C[C@H](OC(=O)[C@H](O)[C@@H](NC(=O)c4ccccc4)c4ccccc4)C(C)=C1C3(C)C)[C@]1(OC(C)=O)CO[C@@H]1C[C@@H]2O	0.01 µM

* * *

# experiment: Growth inhibition of human UACC62 cells after 48 hrs by sulforhodamine B assay
# Assay type: functional
# conditionDescription: UACC-62, 48 h
experimentalReadout: GI50 (µM)

>>> print(df.to_string())
                            substancesmiles  readoutrelation  recordedmeasurement
0  CC1=CC[C@H](C(C)(C)NC(=S)N/N=C/c2ccccc2O)CC1                =                  2.8
1  CC1=CC[C@H](C(C)(C)NC(=S)N/N=C/c2ccc[nH]2)CC1                =                 14.8
2  CC1=CC[C@H](C(C)(C)NC(=S)N/N=C/c2cccc([N+](=O)[O-])c2)CC1                >                  100
3  CC1=CC[C@H](C(C)(C)NC(=S)N/N=C/c2ccccc2Cl)CC1                =                 19.3
4  CC1=CC[C@H](C(C)(C)NC(=S)N/N=C(\C)c2ccccc2)CC1                >                  100
5  CC1=CC[C@H](C(C)(C)NC(=S)N/N=C(\C)c2ccc([N+](=O)[O-])cc2)CC1                =                  7.2
6  CC1=CC[C@H](C(C)(C)NC(=S)N/N=C/c2ccc(O)cc2)CC1                >                  100
7  CC1=CC[C@H](C(C)(C)NC(=S)N/N=C/c2ccccc2[N+](=O)[O-])CC1                =                 10.6
8  COc1cc(/C=N/NC(=S)NC(C)(C)[C@H]2CC=C(C)CC2)ccc1O                =                 14.7
9  CC1=CC[C@H](C(C)(C)NC(=S)N/N=C/c2ccc(N(C)C)cc2)CC1                =                 45.1

* * *

# experiment: Growth inhibition of human UACC62 cells after 48 hrs by sulforhodamine B assay
# Format: functional
# conditionDescription: UACC-62, 48 h
experimentalReadout: TGI

>>> df
                            substancesmiles  recordedmeasurement
0  CC1=CC[C@H](C(C)(C)NC(=S)N/N=C/c2ccc(Cl)cc2)CC1             > 100 µM
1  CC1=CC[C@H](C(C)(C)NC(=S)N/N=C(\C)c2ccccc2)CC1             > 100 µM
2  CC1=CC[C@H](C(C)(C)NC(=S)N/N=C/c2ccc(C)cc2)CC1             > 100 µM
3  CC1=CC[C@H](C(C)(C)NC(=S)N/N=C/c2ccc(O)cc2)CC1             > 100 µM
